Target: hTA1 C5S (Homo sapiens, UniProt Q96RJ0, C5S)
Construct: expressed in transfected cells; host or cells: HEK293T
Sequence (Q96RJ0 whole entry C5S): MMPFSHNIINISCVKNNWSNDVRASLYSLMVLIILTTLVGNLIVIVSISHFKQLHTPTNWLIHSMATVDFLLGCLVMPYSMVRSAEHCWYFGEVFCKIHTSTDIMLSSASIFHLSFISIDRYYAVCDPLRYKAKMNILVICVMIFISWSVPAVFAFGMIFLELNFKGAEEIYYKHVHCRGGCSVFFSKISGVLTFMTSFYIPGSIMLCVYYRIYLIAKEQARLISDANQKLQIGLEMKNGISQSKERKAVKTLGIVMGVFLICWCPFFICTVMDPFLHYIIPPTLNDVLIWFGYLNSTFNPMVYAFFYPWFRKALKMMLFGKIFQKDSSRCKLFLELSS
Test: GloSensor cAMP accumulation assay, C5S mutant
Type: cell-based
Details: EC50, C5S; n=2
readout_name: EC50 (nM)
Note: unit nM is implicit; provide only the numeric part.

Requested field: EC50. Item: CCC(CC1COC(N)=N1)c1ccccc1 (stereo not shown) [Ro5256390]
9.93

Source listed as paper PMC10762035.
